observable: melting point

Reference set, count: 2
In plain terms, COC(=O)OC[C@@H]1CC(c2ccc(-c3ccc(N4C[C@H](Cn5ccnn5)OC4=O)cc3F)cn2)=NO1 has a documented melting point of 205 °C

In plain terms, COc1ccc(C2=NN(CC(=O)Nc3ccc(C4=NNC(=O)CC4C)cc3)C(=O)C3CC=CCC23)cc1OC (stereo not drawn) has a documented melting point of 139 to 141 °C

// below: melting point requested for another molecule
In plain terms, CS(=O)(=O)c1ccc(Oc2cc(OCc3cccc(Cl)n3)c3[nH]c(C4=NCC(CC(N)=O)S4)cc3c2)cc1 (stereo not drawn) has a documented melting point of 147 to 148 °C

----------
observable: melting point

In plain terms, COc1ccc2c(c1F)CSCC2=O has a documented melting point of 85 to 92 °C

Further cases:
In plain terms, CCn1c(=O)c2c(nc(/C=C/c3cccc(OC(C)=O)c3)n2C)n(CC)c1=O has a documented melting point of 206 to 207 °C

In plain terms, CC(=O)Oc1ccc(-n2c3c(c(C(C)=O)c2-c2ccccc2)-c2ccccc2CC3)cc1C(=O)O has a documented melting point of 223 to 226 °C

In plain terms, CC(C)(Cc1ccccc1)C(NC(=O)c1cccc(Cl)c1)Nc1c(Nc2cccnc2)c(=O)c1=O (single isomer, unassigned; (-)) has a documented melting point of 178 to 179 °C

----------
observable: melting point

Reference set, count: 6
In plain terms, O=C1c2ccccc2C(=O)c2sc(-c3ncc(-c4ccccc4)o3)nc21 has a documented melting point of > 260 °C

In plain terms, CO/N=C(\C)[C@H]1CC[C@H]2[C@@H]3CC=C4C[C@@H](O)CC[C@]4(C)[C@H]3CC[C@]12C has a documented melting point of 167 to 168 °C

In plain terms, COC=CC=C(C#N)C#N has a documented melting point of 74 to 76 °C

In plain terms, O=c1cnn(-c2ccc(C(c3ccc(Cl)cc3)c3nc(-c4ccccc4)cs3)c(Cl)c2)c(=O)[nH]1 (stereo not given) has a documented melting point of 90 °C

In plain terms, N#Cc1ccc(N2CCN(Cc3cn4cc(Cl)ccc4n3)CC2)c(F)c1 has a documented melting point of 132 to 133 °C

In plain terms, CCCCC1=NC(C)(C)C(=O)N1Cc1ccc(-c2ccccc2C(=O)OC(C)(C)C)cc1 has a documented melting point of 98 to 100 °C

Further cases:
In plain terms, CC(C)C(C)(C#N)N1C(=O)c2ccc3c(ccn3C)c2C1=O (stereo not given) has a documented melting point of 123 to 128 °C

In plain terms, COc1c(C=NO)ccc(Cl)c1Cl has a documented melting point of 82 to 83 °C

In plain terms, CC=CC=C[C@@H]1C[C@H](CC(=O)O)OC2(CCCCC2)O1 (relative stereo) has a documented melting point of 144 to 146 °C

In plain terms, CCOP(=O)(Cc1ccc(C(=S)N2CCCc3ccccc32)cc1)OCC has a documented melting point of 96 to 97 °C

----------
Recorded melting point values for a group of molecules are listed next.

Reference set, count: 3
In plain terms, O=S(=O)(C(/C=C/c1ccc(Br)cc1)c1c(F)c(F)c(F)c(F)c1F)C(/C=C/c1ccc(Br)cc1)c1c(F)c(F)c(F)c(F)c1F (centres undefined) has a documented melting point of 176 to 177 °C

In plain terms, C=Cc1cn(-c2c(Cl)cc(C(F)(F)F)cc2Cl)c2ccccc12 has a documented melting point of 85 to 87 °C

In plain terms, CCC(=O)N1N=C(c2ccc([N+](=O)[O-])c(C)c2)c2cc(Cl)ccc2C=C1C has a documented melting point of 134 to 138 °C

// below: melting point requested for another molecule
In plain terms, CCN(CC)C(=O)c1ccc(C(F)(F)F)cc1-c1ccc(OC)c(OC)c1 has a documented melting point of 108 to 110 °C

----------
observable: melting point

Reference set, count: 2
In plain terms, Cc1ccc(NC(=O)C#Cc2ccccc2)cc1 has a documented melting point of 139 to 141 °C

In plain terms, N=C(N)N1CCN(C23CC4CC(CC(C4)C2)C3)CC1 has a documented melting point of 182 to 186 °C

Further cases:
In plain terms, CCOP(=O)(OCC)C(CCc1cc(C)nc2c(Cl)c(-c3ccccc3)nn12)P(=O)(OCC)OCC has a documented melting point of 66 to 68 °C

In plain terms, Cc1nc(C)c(-c2ccc(OC3SCC(O)C(O)C3O)cn2)s1 (centres undefined) has a documented melting point of 175 °C

In plain terms, CCOC(=O)c1cn(CC)c2cc(-c3cc(C)no3)ccc2c1=O has a documented melting point of 180 to 185 °C

In plain terms, O=C(O)C(=O)CC(=O)c1cn(Cc2ccccc2F)c2ccccc2c1=O has a documented melting point of 172 to 174 °C

In plain terms, O=c1c(C2=CS(=O)(=O)c3cc(NS(=O)(=O)c4ccccc4)ccc3N2)c(O)c2cc(F)ccc2n1CCC1CC1 has a documented melting point of > 200 °C

In plain terms, CCOC(=O)c1cn(Cc2ccccc2)nc1NC(=O)NCc1ccccc1 has a documented melting point of 82 to 83 °C

In plain terms, Cc1coc2c(C(=O)c3cccs3)cc(C(C)(C)C)c(O)c12 has a documented melting point of 145 °C

----------
Recorded melting point values for a group of molecules are listed next.
Kindly provide the numeric value in °C only, without the unit symbol.

In plain terms, O=C1C(O)=C(Br)C(=O)c2ccc(F)cc21 has a documented melting point of 183

// below: melting point requested for another molecule
In plain terms, COc1ccccc1NC(=O)Nc1nc(NC(CC(=O)O)c2ccccc2)nc(Oc2ccc3ccccc3c2)n1 (centres undefined) has a documented melting point of 149

----------
Recorded melting point values for a group of compounds are listed next.

Reference set, count: 5
In plain terms, Nc1nc(N)c2cc(S(=O)(=O)c3ccc(Cl)c(Cl)c3)ccc2n1 has a documented melting point of 286 to 289 °C

In plain terms, CC(O)(Cc1cncs1)c1ccc(Cl)cc1Cl (stereo not given) has a documented melting point of 164 °C

In plain terms, COC(=O)c1nc(C(=O)c2ccc(N)c(OC)c2)n2ccccc12 has a documented melting point of 63 °C

In plain terms, CCCCCCCCCCCCCCOc1cn(Cc2ccccc2)c(CBr)cc1=O has a documented melting point of 135 to 137 °C

In plain terms, CC1=NN=C(C=Cc2ccc(C(F)(F)F)cc2)c2cc3c(cc2C1)OCO3 has a documented melting point of 188 to 191 °C

// below: melting point requested for another compound
In plain terms, CP(C)(=O)COC(=O)c1ccccc1Nc1cccc(C(F)(F)F)c1 has a documented melting point of 85 °C

----------
Recorded melting point values for a group of molecules are listed next.

Reference set, count: 5
In plain terms, Cc1ccc(S(=O)(=O)N2CCCC2c2cccc(C)c2)cc1 (racemic) has a documented melting point of 79 °C

In plain terms, CCC(CNC(=O)c1ccc(C(F)(F)F)c(NC(C)=O)c1)OC(C)=O (centres undefined) has a documented melting point of 121 °C

In plain terms, Cc1c(C)c(N2CCN(c3ncccn3)CC2)c(C)c2c1OC(C)(C)C2 has a documented melting point of 145 to 147 °C

In plain terms, Cc1cccc(C)c1NC(=O)Nc1sc2ccc(Cl)cc2c1-c1ccccc1Cl has a documented melting point of 203 to 204 °C

In plain terms, CCCCCCCCCCCCCCCCCCOc1ccc(OCc2ccccc2)c(C(=O)N(CC(=O)OCC)CC(=O)OCC)c1 has a documented melting point of 61 to 62 °C

Further cases:
In plain terms, CC(C)(O)Cn1c(CCC2(C)OCCO2)nc2c(N)nc3ccccc3c21 has a documented melting point of 231 to 233 °C

In plain terms, CCNCCC(=O)Nc1ccc2c(c1)C(=O)c1cc(NC(=O)CCNCC)ccc1C2=O has a documented melting point of 181 °C

In plain terms, O=C(O)c1cccc(-n2ccc(-c3ccc(OC(F)(F)F)cc3)n2)c1 has a documented melting point of 191 to 194 °C

----------
Recorded melting point values for a group of compounds are listed next.

Reference set, count: 4
In plain terms, C1=C(CCC2CCCO2)CCN(Cc2c[nH]c3ncccc23)C1 (stereo not given) has a documented melting point of 70 to 72 °C

In plain terms, CN1CCC(c2c[nH]c3ccc(NC(=O)c4cccnc4)nc23)CC1 has a documented melting point of 136 to 137 °C

In plain terms, O=c1[nH]c2cc(Cl)ccc2c(=O)c(-c2ccccc2)c1O has a documented melting point of 193 to 196 °C

In plain terms, O=C(Cn1c(-c2ccccc2)ccc(NC(=O)OCc2ccc(C(=O)O)cc2)c1=O)NC(Cc1ccccc1)C(=O)C(F)(F)F (stereo not given) has a documented melting point of 214 to 216 °C

Further cases:
In plain terms, O=C(NCCO)C(F)(OC(F)(F)C(F)(F)C(F)(F)F)C(F)(F)F (stereo not given) has a documented melting point of 69 to 72 °C

In plain terms, CCCc1cc(OCC)c2c(c1OC)S(=O)(=O)N(CSc1nnnn1-c1ccccc1)C2=O has a documented melting point of 110 to 111 °C

In plain terms, O=C(Nc1cccc(-c2ccnc3c(C(=O)c4cccs4)cnn23)c1)OCCCN1CCS(=O)(=O)CC1 has a documented melting point of 148 to 159 °C

In plain terms, O=C1Cc2cc(-n3cccc3)ccc2C(=O)N1 has a documented melting point of 212 to 213 °C

In plain terms, CCOC(=O)CNc1nccc(-c2ccccn2)n1 has a documented melting point of 85 °C

In plain terms, CC1CC(=O)NN=C1c1ccc2c(c1)C1(CC1)C(=O)N2 (stereo not given) has a documented melting point of 291 to 293 °C

In plain terms, CNC(=O)c1ccn2c(C(=O)N3CCNCC3)c(Cc3cccc(F)c3C)c(-c3ccccc3)c2c1 has a documented melting point of 205 °C

In plain terms, COC(=O)c1ccc(C(=O)NS(=O)(=O)c2ccc(C(=O)NCCc3ccc(OC)cc3)cc2)cn1 has a documented melting point of 240 to 242 °C

In plain terms, CCN(C/C=C/C#CC(C)(C)C)Cc1cccc(N2C(=O)c3ccccc3C2=O)c1 has a documented melting point of 65 to 66 °C

In plain terms, CCOC1CC2CCC3C4CCC(C(C)=O)C4(C)CC(NC(=O)OCC(Cl)(Cl)Cl)C3C2(C)CC1OCC (stereo not given) has a documented melting point of 68 to 71 °C

In plain terms, Cc1ccc(NC(=O)c2cccc(C(F)(F)F)c2)cc1Br has a documented melting point of 153 to 155 °C

In plain terms, CNC(=O)[C@H](Cc1ccc(OC)cc1)NC(=O)[C@@H](N)CC(C)C has a documented melting point of 128 to 132 °C

In plain terms, CCOC(=O)c1cn(NCC(=O)OC(C)(C)C)c2c(F)c(F)c(F)cc2c1=O has a documented melting point of 99.5 to 102 °C

In plain terms, N=C(Nc1ccc(NC(=O)CNCc2ccccc2)cc1)c1cccs1 has a documented melting point of 161 to 163 °C

In plain terms, CC(=O)CC(=O)NCC#N has a documented melting point of 63 to 65 °C

In plain terms, CCCCOC1CCCC(C2NC(=O)C2C(C)O[Si](C)(C)C(C)(C)C)C1O (stereo not given) has a documented melting point of 105 to 106 °C
